Data origin: ChEMBL document CHEMBL1201862

# Tested on: HT-29
# Assay details: NCI tumour cell line growth inhibition, 48 h
Active and inactive are the calls of the source. No stated cut-off is given here; in the data, active = GI50 up to about 1.1 µM and inactive = higher.
Hi! Could you answer with just one of these? yes (active), no (inactive)

// below: answered molecules
> print(dat)
                                   molecule  group
1  COc1ccc(/C=C2\CCC(CCN3CCOCC3)C2=O)cc1 (stereo not given)     no
2  COc1cc(CC(C)NC(C)=O)cc(OC)c1 (stereo not given)     no
3                      O=C1CCCCc2cccc(O)c21     no
4            COc1ccc(-c2nc(O)c3ccccc3n2)cc1     no
5   CC1=CC(=O)c2ccc(C)cc2C1=O [CHIMAPHILIN]     no
6  CCCC(C)c1c(Cl)nc(Cl)nc1Cl (stereo not given)     no
7  CCCCCCCC(=O)OC[n+]1cccc(-c2c(COC(=O)NC(C)C)c(COC(=O)NC(C)C)c3n2CCC3)c1     no
8  CCOC(=O)c1nc2cc(N3CCOCC3)c(F)cc2[nH]c1=O     no

Prompt line: Recorded test outcome, item CCOc1ccc(NC(=O)/C=C/c2ccco2)cc1
Response line: no

---

# System: NCI/ADR-RES
# Assay details: NCI tumour cell line growth inhibition, 48 h
Activity calls are given as the source filed them. No stated cut-off is given here; in the data, active = GI50 up to about 1.1 µM and inactive = higher.
molecules and their reported GI50

> print(dat)
                                   molecule  measurement.kind       recorded.value
1  Cn1ncc(NCCn2cnc3c2c(=O)n(C)c(=O)n3C)c(Cl)c1=O              GI50  > 100 µM (inactive)

Field GI50 (entry CC(=O)OCC1(CNc2nc(N)ncc2C#N)CC(CCc2ccccc2)C1 (stereo unspecified) ) reads 10.3 µM (inactive)

Field GI50 (entry COc1cc(OC)cc(-c2cc(=O)c3c(OC)c(OC)c(OC)c(OC)c3o2)c1 ) reads 29.8 µM (inactive)

Field GI50 (entry O=C1ON=C2C3CC4CC12CC1(C3)C(=O)ON=C41 ) reads > 100 µM (inactive)

Field GI50 (entry NCOC(=O)Cc1ccc(Br)cc1 ) reads > 100 µM (inactive)

Field GI50 (entry COc1ccc(C2N(c3ccc(F)cc3)C(=O)N3C(c4ccc(OC)cc4)N(c4ccc(F)cc4)C(=O)N23)cc1 (stereo unspecified) ) reads > 100 µM (inactive)

Field GI50 (entry CCOP(=O)(OCC)/C(C#N)=C/c1cccn1C ) reads > 100 µM (inactive)

Field GI50 (entry COC1OC2COC(c3ccccc3)OC2C(O)C1OC(=S)c1ccccc1 (stereo unspecified) ) reads 36.6 µM (inactive)

Field GI50 (entry CS(=O)(=O)CCC(N)P(=O)(O)O (stereo unspecified) ) reads > 100 µM (inactive)

Field GI50 (entry O=C(O)c1c(CC(Cc2ccc3c(c2)CCC3)C(=O)O)ccc2c1CCC2 (stereo unspecified) ) reads > 100 µM (inactive)

Field GI50 (entry COc1ccc(Nc2nc3ccc(C(F)(F)F)cc3nc2C(=O)O)cc1OC ) reads 20.2 µM (inactive)

---

compounds and their reported GI50
# Tested on: BT-549
# Assay details: NCI tumour cell line growth inhibition, 48 h
Active and inactive are the calls of the source. Cut-off read from the data, not from the text of the source: active = GI50 up to about 1.1 µM and inactive = higher.

Below: 10 compounds and their reported GI50.
> print(dat)
                                    compound  measurement.kind       recorded.value
 1          COc1cc(Nc2cc(Cl)cc(Cl)c2)nc(N)n1              GI50   17.1 µM (inactive)
 2  C=CCOC(=O)C1=C(CCC[C@@H](C)O[Si](C)(C)C(C)(C)C)N=C(N)N2[C@H](CCO)CC[C@@H]12              GI50   21.8 µM (inactive)
 3             Cc1ccc(Cc2n[nH]c(=O)[nH]2)cc1              GI50  > 100 µM (inactive)
 4           CCOc1ccc(NC(=O)/C=C/c2ccco2)cc1              GI50     38 µM (inactive)
 5            O=C1CC2(CCNCC2)C(=O)N1N1CCCCC1              GI50  > 100 µM (inactive)
 6   Cc1ccc(/C=N/n2c(=O)[nH]c3ccccc3c2=O)cc1              GI50  > 100 µM (inactive)
 7  COC1OC2COC(c3ccccc3)OC2C(O)C1OC(=S)c1ccccc1 (stereo unspecified)              GI50   53.1 µM (inactive)
 8  O=P1(Cc2ccccc2)N(Cc2ccccc2)[C@@H]2CCCC[C@H]2N1Cc1ccccc1              GI50   17.7 µM (inactive)
 9  CC(Cc1ccc(Cl)cc1Cl)NO (stereo unspecified)              GI50  > 100 µM (inactive)
10    CCOC(=O)c1c(N2CCCC2)ncn(-c2ccccc2)c1=S              GI50  > 100 µM (inactive)

Lab note: next compound to report on.
I looked up COC(=O)[C@H](C)NC(=O)C1(CNC(=O)[C@H](C)NC(=O)OC(C)(C)C)Cc2ccccc2-c2ccccc2C1 and its GI50 for BT-549 was > 43.6 µM (inactive)

---

# Tested on: MDA-N
# Assay details: NCI tumour cell line growth inhibition, 48 h
Calls of active or inactive are those of the source. Rule as the data show it: active = GI50 up to about 1.1 µM and inactive = higher.
Measurement kind: GI50

Molecule	Recorded value
Clc1ccc(C(c2ccc(Cl)cc2)N2CCNCC2)cc1	1.89 µM (inactive)
NCOC(=O)Cc1ccc(Br)cc1	> 100 µM (inactive)
COc1ccc2c(O)c1-c1c(OC)ccc(c1O)SSc1ccc(OC)c(c1O)-c1c(OC)ccc(c1O)SS2	> 100 µM (inactive)
CC1CN=C(N(C)C(=O)Nc2ccc(Cl)cc2)S1 (stereo not given)	8.69 µM (inactive)
O=C(N/N=C\c1ccc([N+](=O)[O-])s1)c1ccncc1	14.1 µM (inactive)

Field GI50 (entry O=C1NC(=O)C2=C1CCC2O (stereo not given) ) reads > 100 µM (inactive)

Field GI50 (entry CCC1CC(=O)N(SCC(N)C(=O)O)C1=O (stereo not given) ) reads > 100 µM (inactive)

Field GI50 (entry CC(C)=CC[S+]([O-])c1ccccc1NC1=CC(=O)CC(C)(C)C1 (stereo not given) ) reads > 100 µM (inactive)

Field GI50 (entry O=C(CN1c2ccccc2Sc2ccccc21)n1cnc2ccccc21 ) reads > 100 µM (inactive)

Field GI50 (entry Oc1ccc(SCc2cc(O)ccc2O)cc1 ) reads 14.4 µM (inactive)

Field GI50 (entry CCCCCCCC/C=C1\CCC(CN2CCOCC2)C1=O (stereo not given) ) reads 9.55 µM (inactive)

Field GI50 (entry CCOC(=O)NNC(=O)NCc1cccc(CNC(=O)NNC(=O)OCC)c1 ) reads > 100 µM (inactive)

Field GI50 (entry CCOC(=O)c1ccc(/N=C2\SC(=S)N(c3ccc(F)cc3)\C2=N/c2ccc(C(=O)OCC)cc2)cc1 ) reads 12.9 µM (inactive)

Field GI50 (entry CCCCCCCCCCOC1C(C(C)OCCCN(C)C)OC2OC3(CCCCC3)OC21 (stereo not given) ) reads 4.94 µM (inactive)

Field GI50 (entry CC(C)C(O)(C(=O)OCN1C(=O)C2C3C=CC(C2C1=O)C1C2C(=O)N(COC(=O)C(O)(C(C)C)C(C)O)C(=O)C2C31)C(C)O (stereo not given) ) reads > 100 µM (inactive)

Field GI50 (entry Cc1cc(S(=O)(=O)Nc2nnc3c(Cl)cc(C(F)(F)F)cn23)c(S)cc1Cl ) reads 99.8 µM (inactive)

Field GI50 (entry CC(=O)N(C(C)=O)n1c(Cc2ccc(C)cc2)nn(C(C)=O)c1=O ) reads > 100 µM (inactive)

---

# System: UACC-257
# Assay details: NCI tumour cell line growth inhibition, 48 h
Calls of active or inactive are those of the source. No stated cut-off is given here; in the data, active = GI50 up to about 1.1 µM and inactive = higher.
Measurement kind: GI50

Molecule	Measurement kind	Recorded value
CC(=O)OCCOCNC(=S)N/N=C/c1ccc2ccccc2n1	GI50	48.9 µM (inactive)
CCSc1nc(C)nc2c1sc1nc3ccccc3n12	GI50	> 100 µM (inactive)
CCN(CC)C(=O)c1cc([N+](=O)[O-])c(=O)n2c1[nH]c1ccccc12	GI50	> 100 µM (inactive)
CC(C)(C)c1ccc(O)c(CN(Cc2cc(C(C)(C)C)ccc2O)c2ccccc2)c1	GI50	2.48 µM (inactive)
CC1(C(=O)O)CCOc2ccccc21 (stereo not given)	GI50	> 100 µM (inactive)
CCC(COC(=O)CC[C@@H](NC(=O)C(C)NC(=O)C(C)OC1C(O)C(CO)OC(OCc2ccccc2)C1NC(C)=O)C(N)=O)NC1c2ccccc2Nc2cccc([N+](=O)[O-])c21 (stereo not given in full)	GI50	> 100 µM (inactive)
COc1ccc(Nc2nc3ccc(C(F)(F)F)cc3nc2C(=O)O)cc1OC	GI50	30.6 µM (inactive)
COc1ccc(-c2c3c(n(C4OC(CO)C(O)C(O)C4O)c(=S)c2C#N)CCCC3)cc1 (stereo not given)	GI50	> 100 µM (inactive)
C[P+]1(c2ccccc2)CCCCC1	GI50	> 100 µM (inactive)

I looked up Cc1c(Cl)cccc1NC(=O)CC1C(=O)Nc2ccccc2S1(=O)=O (stereo not given) and its GI50 for UACC-257 was 24 µM (inactive)
